Values were extracted from a melting point compilation (Tetko et al.; mined from patent text by program, amines drawn as free bases though some values may be those of a salt).

result.type: melting point

State the recorded melting point for this entry: CC1(c2nn(-c3c(Cl)cc(C(F)(F)F)cc3Cl)c(N)c2C#N)CC1(Cl)Cl (centres undefined) 209 to 210 °C

State the recorded melting point for this entry: CC(C)NCC(O)COc1ccc2c(=O)cc(-c3cc(OCc4ccccc4)cc(OCc4ccccc4)c3)oc2c1 (centres undefined) 173 to 174 °C

State the recorded melting point for this entry: CCC1Oc2ccc(CN3CCN(c4ccncc4)CC3)cc2NC1=O (centres undefined) 113 to 128 °C

State the recorded melting point for this entry: CCOC(=O)CCCCOc1ccc([N+](=O)[O-])c(C=C2C(=O)NC(=O)N2C)c1 121 to 123 °C

State the recorded melting point for this entry: O=CNNc1ccc(NC(=O)c2cccc([N+](=O)[O-])c2)cc1 185 to 187 °C

State the recorded melting point for this entry: CCOc1ncc(S(C)(=O)=O)cc1C(=O)O 175 to 176 °C

State the recorded melting point for this entry: CCCCc1nn(-c2cc(NC(=O)c3ccccc3)ccc2C(F)(F)F)c(=O)n1Cc1ccc(-c2ccccc2S(=O)(=O)NC(=O)OC(C)(C)C)cc1F 117 to 120 °C

State the recorded melting point for this entry: CCOC(=O)N[C@@H]1CCc2ccccc2[C@H]1Nc1ccccc1CO (relative stereo) 134 to 135 °C

State the recorded melting point for this entry: CN1CCN(C(=O)c2cc(-c3ccccc3)c(=O)[nH]c2-c2c(Cl)cccc2C#N)CC1 250 to 253 °C

State the recorded melting point for this entry: O=C(c1ccc2nc[nH]c(=O)c2c1)c1ncc2ccccn12 289 °C

State the recorded melting point for this entry: O=C(c1ccccc1Cl)c1c(O)nn(-c2c(Cl)cc(Cl)cc2Cl)c1N1C(=O)c2ccccc2C1=O 245 to 246 °C

State the recorded melting point for this entry: C=CCOC(=O)CSc1cccc(NC(=O)NCC(=O)N(CC(=O)OC(C)(C)C)c2ccccc2C(=O)c2ccccc2)c1 155 to 157 °C

State the recorded melting point for this entry: O=C(NCCCc1ccncc1)N(CCC12CC3CC(CC(C3)C1)C2)Cc1ccco1 128 to 130 °C

State the recorded melting point for this entry: CC(C)(C)c1ccc2c(c1)C=C(/C=C/C=C/C=C/C(=O)O)CO2 200 to 202 °C

State the recorded melting point for this entry: OCc1nn(-c2ccc(Cl)cc2)c2c1CCCC2 125 to 126 °C

State the recorded melting point for this entry: NC1=NCC(NC=O)(N[C@@H]2CC=C(CO)C2)C(Cl)=N1 (some centres undefined) 148 to 150 °C

State the recorded melting point for this entry: O=C(O)C1CSC(Cc2ccccc2)N1 (mixture of isomers) 200 °C

State the recorded melting point for this entry: O=C(O)C1=Cc2cc(F)cc(Cl)c2OC1C(F)(F)F (centres undefined) 240 to 241 °C

State the recorded melting point for this entry: CC(=O)Nc1ccc(NC(=O)CCl)c(O)c1 218 °C
